# credit: ChEMBL document CHEMBL4732054

tested on: HEL; assay: Cytotoxicity against human HEL cells assessed as reduction in cell growth incubated for 3 days by coulter counter method; type: cell-based; settings: 72 h, time 3 day
// CC50 lookup, one value per entry

line_notation=CCCCCc1ccc(C#Cc2c(-c3ccc(CCCCC)cc3)oc3nc(=O)n([C@H]4C[C@H](OC(C)=O)[C@@H](COC(C)=O)O4)cc23)cc1 test_system=HEL property=CC50 reported_measurement="> 100 µM"
line_notation=O=c1[nH]c(=O)n([C@H]2C[C@H](O)[C@@H](CO)O2)cc1/C=C/Br test_system=HEL property=CC50 reported_measurement="> 300 µM"
line_notation=CC(=O)OC[C@H]1O[C@@H](n2cc3c(C#CCCCCn4c5ccccc5c5ccccc54)c(-c4ccc(C)cc4)oc3nc2=O)C[C@@H]1OC(C)=O test_system=HEL property=CC50 reported_measurement="6.22 µM"

Kindly consider the entry below.
Task: Report value only: CC50, HEL, CCCCCc1ccc(-c2oc3nc(=O)n([C@H]4C[C@H](OC(C)=O)[C@@H](COC(C)=O)O4)cc3c2C#CCCO)cc1
Result: 2.66 µM

----------
// selectivity ratio lookup, one value per entry
assay: Selectivity index, ratio of CC50 for human HEL cells to EC50 for thymidine kinase positive Varicella zoster virus OKA infected in human HEL cells; assay type: toxicity, cell-based; details: read-out: Ratio CC50/EC50

Answered examples (5):
line_notation=CCCCCc1ccc(-c2oc3nc(=O)n([C@H]4C[C@H](OC(C)=O)[C@@H](COC(C)=O)O4)cc3c2C#CCCO)cc1 reported_measurement="≤ 1"
line_notation=CCCCCc1ccc(-c2oc3nc(=O)n([C@H]4C[C@H](OC(C)=O)[C@@H](COC(C)=O)O4)cc3c2C#CCO)cc1 reported_measurement="≤ 1"
line_notation=CCCCCc1ccc(C#Cc2c(-c3ccc(CCCCC)cc3)oc3nc(=O)n([C@H]4C[C@H](OC(C)=O)[C@@H](COC(C)=O)O4)cc23)cc1 reported_measurement=67
line_notation=CC(=O)OC[C@H]1O[C@@H](n2cc3c(C#CCCCCn4c5ccccc5c5ccccc54)c(-c4ccc(C)cc4)oc3nc2=O)C[C@@H]1OC(C)=O reported_measurement="≤ 1"
line_notation=CC(=O)OC[C@H]1O[C@@H](n2cc3c(C#CC4(O)c5ccccc5-c5ccccc54)c(-c4ccc(C)cc4)oc3nc2=O)C[C@@H]1OC(C)=O reported_measurement="≤ 1"

Kindly consider the entry below.
Task: Annotate the compound CC(=O)OC[C@H]1O[C@@H](n2cc3c(C#Cc4ccc(C)cc4)c(-c4ccc(C)cc4)oc3nc2=O)C[C@@H]1OC(C)=O with its measured selectivity ratio.
Result: ≤ 1

----------
tested on: Human alphaherpesvirus 3; assay: Antiviral activity against thymidine kinase deficient Varicella zoster virus 07-1 infected in human HEL cells assessed as reduction in virus-induced cytopathogenic effect measured after 3 days coulter counter method; type: functional, organism-based; settings: Human alphaherpesvirus 3, 07-1, HEL, 72 h
// pEC50 lookup, one value per entry
Lab note — pEC50 values are minus log10 of concentrations in M.

line_notation=CCCCCc1ccc(-c2oc3nc(=O)n([C@H]4C[C@H](OC(C)=O)[C@@H](COC(C)=O)O4)cc3c2C#CCO)cc1 reported_measurement=4.89
line_notation=CC(=O)OC[C@H]1O[C@@H](n2cc3c(C#CCCN4C(=O)c5ccccc5C4=O)c(-c4ccc(C)cc4)oc3nc2=O)C[C@@H]1OC(C)=O reported_measurement=4.42

Kindly consider the entry below.
Task: Annotate the molecule COCC#Cc1c(-c2ccc(C)cc2)oc2nc(=O)n([C@H]3C[C@H](OC(C)=O)[C@@H](COC(C)=O)O3)cc12 with its measured pEC50.
Result: 4.35
